Entry source: patent US20190270733A1

test name: Mouse plasma PK (IV and PO dosing)
Type: in vivo, Male C57 Bl/6J mice
run conditions: male, C57 Bl/6J, mouse, plasma, iv, 1 mg/kg, IV administration, mouse plasma; read-out: half-life (T1/2) (converted)
metric: half-life (h)

{"columns": ["compound", "unit abbrev", "reported value"],
 "data": [
  ["Nc1ccc(-c2cccs2)cc1NC(=O)c1ccc2c(c1)CCC(=O)N2 [Example 5]", "h", 1.5]
]}

* * *

test name: Mouse plasma PK (IV and PO dosing)
Type: in vivo, Male C57 Bl/6J mice
run conditions: male, C57 Bl/6J, mouse, plasma, po, 7 mg/kg, PO 7 mg/kg, mouse plasma, average; read-out: T1/2 (converted)
metric: half-life (h)

{"columns": ["test smiles", "metric", "unit abbrev", "reported value"],
 "data": [
  ["Nc1ccc(-c2cccs2)cc1NC(=O)c1ccc2c(c1)CCC(=O)N2", "half-life", "h", 2.66]
]}
